Protein target, amino acids: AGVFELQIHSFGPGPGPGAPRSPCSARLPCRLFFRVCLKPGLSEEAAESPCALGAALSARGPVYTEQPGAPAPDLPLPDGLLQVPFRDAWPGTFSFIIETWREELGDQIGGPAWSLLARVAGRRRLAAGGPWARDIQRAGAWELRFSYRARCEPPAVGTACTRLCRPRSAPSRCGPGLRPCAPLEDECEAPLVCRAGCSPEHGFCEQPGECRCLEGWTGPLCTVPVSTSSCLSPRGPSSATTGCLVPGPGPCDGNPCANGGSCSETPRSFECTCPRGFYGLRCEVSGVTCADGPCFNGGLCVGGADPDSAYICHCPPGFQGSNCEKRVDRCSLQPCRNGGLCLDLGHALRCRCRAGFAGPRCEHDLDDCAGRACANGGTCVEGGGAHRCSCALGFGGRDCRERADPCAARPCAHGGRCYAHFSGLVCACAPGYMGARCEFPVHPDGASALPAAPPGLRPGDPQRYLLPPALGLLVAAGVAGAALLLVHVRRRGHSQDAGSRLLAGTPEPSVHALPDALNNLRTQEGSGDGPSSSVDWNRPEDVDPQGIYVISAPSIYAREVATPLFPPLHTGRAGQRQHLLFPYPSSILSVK
Bridge positions count the residues as written; N and C are the ends. Square brackets hold non-standard residues; d marks the D form. Peptide text beside a SMILES is read from it. * marks the point of attachment. DOTA = O=C(O)CN1CCN(CC(=O)O)CCN(CC(=O)*)CCN(CC(=O)O)CC1; Carboxymethyl = O=C(O)C*; Ahx = NCCCCCC(=O)O
value-kind: Kd

Look over these answered cases.
1) CSCC[C@H](NC(C)=O)C(=O)N[C@@H](CO)C(=O)N[C@@H](CC(=O)O)C(=O)N[C@H]1CSSC[C@@H](C(=O)N2CCC[C@H]2C(=O)N[C@H](C)C(=O)N[C@@H](CC(=O)O)C(N)=O)NC(=O)[C@H](CC(N)=O)NC(=O)[C@H](Cc2c[nH]c3ccccc23)NC(=O)[C@H](CCC(N)=O)NC(=O)[C@H](CC(C)C)NC(=O)[C@H](Cc2c[nH]c3ccccc23)NC1=O [compound 17] (Ac-MSDCWLQWNCP[dA]D-NH2; disulfide 4-10) : > 0.1 µM
2) CSCC[C@H](NC(C)=O)C(=O)N[C@@H](CO)C(=O)N[C@@H](CC(=O)O)C(=O)N[C@H]1CSSC[C@@H](C(=O)N2CCC[C@H]2C(=O)N[C@@H](Cc2ccccc2)C(=O)N[C@@H](CC(=O)O)C(N)=O)NC(=O)[C@H](CC(N)=O)NC(=O)[C@H](Cc2c[nH]c3ccccc23)NC(=O)[C@@H](C)NC(=O)[C@H](CC(C)C)NC(=O)[C@H](Cc2c[nH]c3ccccc23)NC1=O [compound 13] (Ac-MSDCWL[dA]WNCPFD-NH2; disulfide 4-10) : > 0.1 µM

Notebook: CC(C)C[C@@H]1NC(=O)[C@H](Cc2c[nH]c3ccccc23)NC(=O)[C@@H](NC(=O)[C@H](CC(=O)O)NC(=O)[C@H](CO)NC(=O)CCCCCNC(=O)CN2CCN(CC(=O)O)CCN(CC(=O)O)CCN(CC(=O)O)CC2)CSSC[C@@H](C(=O)N2CCC[C@H]2C(=O)N[C@@H](Cc2ccc(OCC(=O)O)cc2)C(=O)N[C@@H](CC(=O)O)C(N)=O)NC(=O)[C@H](CC(N)=O)NC(=O)[C@H](Cc2c[nH]c3ccccc23)NC(=O)[C@H](CCC(N)=O)NC1=O [compound 37] ({DOTA-Ahx}-SDCWLQWNCPY(Carboxymethyl)D-NH2; disulfide 3-9) , Kd read as > 0.1 µM
